# TARGET OF ASSAY: T1, Recombinant Human DLL4 (delta-like protein 4) (human, UniProt Q9NR61 27-524)
# T1 construct: Bought recombinant human DLL4 (R&D Systems Cat#1506-D4/CF); also called rHuman DLL4; Delta-like 4
# RUN DESCRIPTION: ELISA, DLL4 coated on plate, Fab at 100 nM
MEASUREMENT LABEL: ELISA signal

Fab VH1-46_IGHD6-6*01_IGHJ1*01 S102A/S103P/S104F/H111F & L6_IGKJ1*01 S28N (Fab, V domains shown, Tested as a Fab; also called APFF & S28N) VH: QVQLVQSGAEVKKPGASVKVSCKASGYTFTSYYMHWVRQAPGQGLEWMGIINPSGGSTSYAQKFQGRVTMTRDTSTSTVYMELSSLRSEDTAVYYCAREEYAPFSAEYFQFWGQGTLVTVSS VL: EIVLTQSPATLSLSPGERATLSCRASQNVSSYLAWYQQKPGQAPRLLIYDASNRATGIPARFSGSGSGTDFTLTISSLEPEDFAVYYCQQRSNWPPWTFGQGTKVEIKR = 0.13

I'm hoping you can list ELISA signal for every binder here, please.
1. Fab VH1-46_IGHD6-6*01_IGHJ1*01 S102A/S103P/S104F/H111F & L6_IGKJ1*01 S31H (Fab, V domains shown, Tested as a Fab; also called APFF & S31H) VH: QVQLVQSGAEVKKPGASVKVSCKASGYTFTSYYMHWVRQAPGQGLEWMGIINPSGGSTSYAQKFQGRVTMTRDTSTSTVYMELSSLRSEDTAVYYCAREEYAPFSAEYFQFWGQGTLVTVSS VL: EIVLTQSPATLSLSPGERATLSCRASQSVSHYLAWYQQKPGQAPRLLIYDASNRATGIPARFSGSGSGTDFTLTISSLEPEDFAVYYCQQRSNWPPWTFGQGTKVEIKR
2. Fab VH1-46_IGHD6-6*01_IGHJ1*01 S102A/S103P/S104F/H111F & L6_IGKJ1*01 S30D (Fab, V domains shown, Tested as a Fab; also called APFF & S30D) VH: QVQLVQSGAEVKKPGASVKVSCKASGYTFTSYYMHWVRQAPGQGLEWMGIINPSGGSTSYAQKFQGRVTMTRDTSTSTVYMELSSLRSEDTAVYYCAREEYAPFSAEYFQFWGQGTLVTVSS VL: EIVLTQSPATLSLSPGERATLSCRASQSVDSYLAWYQQKPGQAPRLLIYDASNRATGIPARFSGSGSGTDFTLTISSLEPEDFAVYYCQQRSNWPPWTFGQGTKVEIKR
3. Fab VH1-46_IGHD6-6*01_IGHJ1*01 S102A/S103P/S104F/H111F & L6_IGKJ1*01 S28H (Fab, V domains shown, Tested as a Fab; also called APFF & S28H) VH: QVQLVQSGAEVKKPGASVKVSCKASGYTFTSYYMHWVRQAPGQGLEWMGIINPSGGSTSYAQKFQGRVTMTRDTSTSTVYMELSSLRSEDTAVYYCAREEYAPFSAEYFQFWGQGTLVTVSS VL: EIVLTQSPATLSLSPGERATLSCRASQHVSSYLAWYQQKPGQAPRLLIYDASNRATGIPARFSGSGSGTDFTLTISSLEPEDFAVYYCQQRSNWPPWTFGQGTKVEIKR

[0.09, 0.09, 0.09]
